Data origin, for the record: the kinase profiling compilation of Christmann-Franck et al. (2016)

system: PIK3CA (human), P42336 [M1043I]; assay: KINOMEscan competition binding; conditions: compound 1.0 µM
Sequence (P42336 whole entry M1043I, looked up): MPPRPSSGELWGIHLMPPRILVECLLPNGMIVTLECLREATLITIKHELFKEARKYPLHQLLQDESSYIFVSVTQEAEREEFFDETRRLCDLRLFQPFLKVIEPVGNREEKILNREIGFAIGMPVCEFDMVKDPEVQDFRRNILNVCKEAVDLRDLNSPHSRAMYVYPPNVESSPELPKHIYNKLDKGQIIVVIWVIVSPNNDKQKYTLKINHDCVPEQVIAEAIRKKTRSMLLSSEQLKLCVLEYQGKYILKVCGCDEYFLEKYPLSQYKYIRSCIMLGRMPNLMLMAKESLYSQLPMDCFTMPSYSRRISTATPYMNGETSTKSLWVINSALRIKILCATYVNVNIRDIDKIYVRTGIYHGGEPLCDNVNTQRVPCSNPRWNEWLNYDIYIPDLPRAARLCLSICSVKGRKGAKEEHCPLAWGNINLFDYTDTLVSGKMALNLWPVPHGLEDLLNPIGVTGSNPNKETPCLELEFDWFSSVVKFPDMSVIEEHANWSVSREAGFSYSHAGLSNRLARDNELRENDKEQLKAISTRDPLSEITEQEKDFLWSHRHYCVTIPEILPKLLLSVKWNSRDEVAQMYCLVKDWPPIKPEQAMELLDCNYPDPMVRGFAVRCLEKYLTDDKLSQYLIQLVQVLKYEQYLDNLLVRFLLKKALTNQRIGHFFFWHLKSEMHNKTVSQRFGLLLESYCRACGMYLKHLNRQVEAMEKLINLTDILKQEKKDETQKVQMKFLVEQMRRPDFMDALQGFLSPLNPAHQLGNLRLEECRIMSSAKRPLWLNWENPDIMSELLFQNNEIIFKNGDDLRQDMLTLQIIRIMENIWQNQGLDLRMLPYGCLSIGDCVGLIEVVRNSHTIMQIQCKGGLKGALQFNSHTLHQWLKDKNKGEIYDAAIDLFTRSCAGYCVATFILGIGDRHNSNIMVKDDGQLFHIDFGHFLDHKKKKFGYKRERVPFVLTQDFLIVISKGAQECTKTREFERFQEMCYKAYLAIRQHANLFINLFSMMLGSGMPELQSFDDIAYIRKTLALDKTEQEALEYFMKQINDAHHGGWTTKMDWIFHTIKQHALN
metric-name: kinase still bound, per cent of control (%)
Numbers only, in %.

compound_smiles=CN(C)C/C=C/C(=O)Nc1cccc(C(=O)Nc2ccc(Nc3nccc(/C(C#N)=C4\Nc5ccccc5S4)n3)cc2)c1 metric_name="kinase still bound, per cent of control" u=% result=100
compound_smiles=CN(C)C/C=C/C(=O)Nc1cccc(C(=O)Nc2ccc(Nc3nccc(-c4cccnc4)n3)cc2)c1 metric_name="kinase still bound, per cent of control" u=% result=74
compound_smiles=CN(C)C/C=C/C(=O)Nc1cccc(C(=O)Nc2ccc(Nc3nccc(-c4c(-c5ccccc5)nn5ccccc45)n3)cc2)c1 metric_name="kinase still bound, per cent of control" u=% result=100

Next, consider the following compound.
Problem: // returns reported kinase still bound, per cent of control for input Cc1cc(NC(=O)c2cccc(NC(=O)/C=C/CN(C)C)c2)ccc1Nc1nccc(-c2cccnc2)n1
Result: 94

---

target: PDGFRB (human); assay: KINOMEscan competition binding; conditions: compound 1.0 µM
Exercise: state measured kinase still bound, per cent of control for each of the compounds provided.
Numbers only, in %.

Known results for compounds:
compound_smiles=Cc1cc(NC(=O)c2cccc(NC(=O)/C=C/CN(C)C)c2)ccc1Nc1nccc(-c2cccnc2)n1 result=4.7
compound_smiles=CN(C)C/C=C/C(=O)Nc1cccc(C(=O)Nc2ccc(Nc3nccc(/C(C#N)=C4\Nc5ccccc5S4)n3)cc2)c1 result=35
compound_smiles=CN(C)C/C=C/C(=O)Nc1cccc(C(=O)Nc2ccc(Nc3nccc(-c4cccnc4)n3)cc2)c1 result=6

Problem: // returns reported kinase still bound, per cent of control for input CN(C)C/C=C/C(=O)Nc1cccc(C(=O)Nc2ccc(Nc3nccc(-c4c(-c5ccccc5)nn5ccccc45)n3)cc2)c1
Result: 0.2

---

target: CSNK1G1 (human) (UniProt Q9HCP0); test: KINOMEscan competition binding; conditions: compound 1.0 µM
Sequence (Q9HCP0 whole entry, looked up): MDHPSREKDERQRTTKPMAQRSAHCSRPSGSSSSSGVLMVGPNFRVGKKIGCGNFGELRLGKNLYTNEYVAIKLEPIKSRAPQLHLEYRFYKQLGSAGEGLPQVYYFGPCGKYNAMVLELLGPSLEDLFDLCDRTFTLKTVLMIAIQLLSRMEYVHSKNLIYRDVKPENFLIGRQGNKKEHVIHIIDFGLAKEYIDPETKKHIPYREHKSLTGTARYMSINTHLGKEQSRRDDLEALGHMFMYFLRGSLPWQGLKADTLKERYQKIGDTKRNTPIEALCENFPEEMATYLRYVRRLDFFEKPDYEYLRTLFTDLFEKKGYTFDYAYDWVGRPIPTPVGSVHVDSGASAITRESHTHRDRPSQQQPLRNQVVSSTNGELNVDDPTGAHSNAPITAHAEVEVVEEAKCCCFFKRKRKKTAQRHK
Exercise: state measured kinase still bound, per cent of control for each of the compounds provided.
Hi, when you answer, please include the unit after the number. Thanks!

Below are some compounds; for each one, tell me its kinase still bound, per cent of control.
1. CN(C)C/C=C/C(=O)Nc1cccc(C(=O)Nc2ccc(Nc3nccc(/C(C#N)=C4\Nc5ccccc5S4)n3)cc2)c1
2. Cc1cc(NC(=O)c2cccc(NC(=O)/C=C/CN(C)C)c2)ccc1Nc1nccc(-c2cccnc2)n1
3. CN(C)C/C=C/C(=O)Nc1cccc(C(=O)Nc2ccc(Nc3nccc(-c4c(-c5ccccc5)nn5ccccc45)n3)cc2)c1
4. CN(C)C/C=C/C(=O)Nc1cccc(C(=O)Nc2ccc(Nc3nccc(-c4cccnc4)n3)cc2)c1

Result:
92%
100%
39%
69%

---

molecular target: EIF2AK1 (human); test: KINOMEscan competition binding; settings: compound 1.0 µM
metric-name: kinase still bound, per cent of control

Known results for compounds:
compound_smiles=CN(C)C/C=C/C(=O)Nc1cccc(C(=O)Nc2ccc(Nc3nccc(-c4cccnc4)n3)cc2)c1 measured_on="EIF2AK1 (human)" metric_name="kinase still bound, per cent of control" result=100%
compound_smiles=CN(C)C/C=C/C(=O)Nc1cccc(C(=O)Nc2ccc(Nc3nccc(/C(C#N)=C4\Nc5ccccc5S4)n3)cc2)c1 measured_on="EIF2AK1 (human)" metric_name="kinase still bound, per cent of control" result=100%

Below are some compounds; for each one, tell me its kinase still bound, per cent of control.
1. Cc1cc(NC(=O)c2cccc(NC(=O)/C=C/CN(C)C)c2)ccc1Nc1nccc(-c2cccnc2)n1
2. CN(C)C/C=C/C(=O)Nc1cccc(C(=O)Nc2ccc(Nc3nccc(-c4c(-c5ccccc5)nn5ccccc45)n3)cc2)c1

Result:
["100%", "76%"]

---

test system: ABL1 (human), P00519 [Y253F]; experiment: KINOMEscan competition binding; details: compound 1.0 µM
Exercise: state measured kinase still bound, per cent of control for each of the compounds provided.
Answers are plain numbers, in %.

compound_smiles=Cc1cc(NC(=O)c2cccc(NC(=O)/C=C/CN(C)C)c2)ccc1Nc1nccc(-c2cccnc2)n1 u=% result=71
compound_smiles=CN(C)C/C=C/C(=O)Nc1cccc(C(=O)Nc2ccc(Nc3nccc(/C(C#N)=C4\Nc5ccccc5S4)n3)cc2)c1 u=% result=100
compound_smiles=CN(C)C/C=C/C(=O)Nc1cccc(C(=O)Nc2ccc(Nc3nccc(-c4c(-c5ccccc5)nn5ccccc45)n3)cc2)c1 u=% result=1.6

Problem: // returns reported kinase still bound, per cent of control for input CN(C)C/C=C/C(=O)Nc1cccc(C(=O)Nc2ccc(Nc3nccc(-c4cccnc4)n3)cc2)c1
Result: 39

---

molecular target: CDK18 (human) (UniProt Q07002); experiment: KINOMEscan competition binding; settings: compound 1.0 µM
Sequence (Q07002 whole entry, looked up): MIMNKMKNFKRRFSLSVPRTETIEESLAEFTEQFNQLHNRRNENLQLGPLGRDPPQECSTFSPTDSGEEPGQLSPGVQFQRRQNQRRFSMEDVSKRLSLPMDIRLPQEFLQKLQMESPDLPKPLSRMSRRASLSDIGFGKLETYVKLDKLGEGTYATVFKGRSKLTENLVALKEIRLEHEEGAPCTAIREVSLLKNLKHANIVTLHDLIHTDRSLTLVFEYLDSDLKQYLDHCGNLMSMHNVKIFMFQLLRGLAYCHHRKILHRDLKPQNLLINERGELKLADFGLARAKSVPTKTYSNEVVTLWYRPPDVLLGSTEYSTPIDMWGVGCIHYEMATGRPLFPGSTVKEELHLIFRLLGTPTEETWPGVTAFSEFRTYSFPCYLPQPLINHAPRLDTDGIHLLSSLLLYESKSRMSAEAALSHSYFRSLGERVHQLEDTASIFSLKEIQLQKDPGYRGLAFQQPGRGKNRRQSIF
Exercise: state measured kinase still bound, per cent of control for each of the molecules provided.
One number for each entry, in %.

Known results for molecules:
compound_smiles=CN(C)C/C=C/C(=O)Nc1cccc(C(=O)Nc2ccc(Nc3nccc(/C(C#N)=C4\Nc5ccccc5S4)n3)cc2)c1 metric_name="kinase still bound, per cent of control" result=100
compound_smiles=Cc1cc(NC(=O)c2cccc(NC(=O)/C=C/CN(C)C)c2)ccc1Nc1nccc(-c2cccnc2)n1 metric_name="kinase still bound, per cent of control" result=100
compound_smiles=CN(C)C/C=C/C(=O)Nc1cccc(C(=O)Nc2ccc(Nc3nccc(-c4cccnc4)n3)cc2)c1 metric_name="kinase still bound, per cent of control" result=100

Problem: // returns reported kinase still bound, per cent of control for input CN(C)C/C=C/C(=O)Nc1cccc(C(=O)Nc2ccc(Nc3nccc(-c4c(-c5ccccc5)nn5ccccc45)n3)cc2)c1
Result: 95

---

target: AKT1 (human)
metric-name: IC50

Problem: Value wanted: IC50 (AKT1 (human)) of entry CN(C)C/C=C/C(=O)Nc1cccc(C(=O)Nc2ccc(Nc3nccc(/C(C#N)=C4\Nc5ccccc5S4)n3)cc2)c1
Result: > 370 nM

---

Exercise: state measured kinase still bound, per cent of control for each of the molecules provided.
target: RPS6KA5 KD2 (human) (UniProt O75582); experiment: KINOMEscan competition binding; settings: compound 1.0 µM
Sequence (O75582 whole entry, looked up): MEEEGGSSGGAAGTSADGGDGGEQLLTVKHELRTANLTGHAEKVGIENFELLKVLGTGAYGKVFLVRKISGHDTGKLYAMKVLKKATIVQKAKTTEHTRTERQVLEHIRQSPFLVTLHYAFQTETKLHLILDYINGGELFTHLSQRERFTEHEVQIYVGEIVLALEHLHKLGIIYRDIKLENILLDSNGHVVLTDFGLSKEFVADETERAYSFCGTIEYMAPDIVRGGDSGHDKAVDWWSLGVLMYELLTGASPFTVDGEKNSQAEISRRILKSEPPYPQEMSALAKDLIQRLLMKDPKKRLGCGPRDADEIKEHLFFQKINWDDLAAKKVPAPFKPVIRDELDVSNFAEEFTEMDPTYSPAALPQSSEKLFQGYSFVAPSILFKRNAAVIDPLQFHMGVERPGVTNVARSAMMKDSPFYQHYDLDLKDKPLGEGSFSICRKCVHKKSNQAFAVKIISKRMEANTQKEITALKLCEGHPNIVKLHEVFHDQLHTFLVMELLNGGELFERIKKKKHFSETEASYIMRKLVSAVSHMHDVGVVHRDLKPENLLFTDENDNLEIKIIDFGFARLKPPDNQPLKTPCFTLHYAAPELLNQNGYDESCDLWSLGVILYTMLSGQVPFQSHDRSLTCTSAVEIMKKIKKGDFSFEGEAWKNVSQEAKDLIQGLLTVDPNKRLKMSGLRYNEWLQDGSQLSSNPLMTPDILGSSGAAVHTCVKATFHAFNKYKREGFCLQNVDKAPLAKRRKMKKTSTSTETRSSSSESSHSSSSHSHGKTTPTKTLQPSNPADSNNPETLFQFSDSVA
One number for each entry, in %.

Known results for molecules:
compound_smiles=Cc1cc(NC(=O)c2cccc(NC(=O)/C=C/CN(C)C)c2)ccc1Nc1nccc(-c2cccnc2)n1 metric_name="kinase still bound, per cent of control" u=% result=97
compound_smiles=CN(C)C/C=C/C(=O)Nc1cccc(C(=O)Nc2ccc(Nc3nccc(/C(C#N)=C4\Nc5ccccc5S4)n3)cc2)c1 metric_name="kinase still bound, per cent of control" u=% result=100

Below are some molecules; for each one, tell me its kinase still bound, per cent of control.
1. CN(C)C/C=C/C(=O)Nc1cccc(C(=O)Nc2ccc(Nc3nccc(-c4cccnc4)n3)cc2)c1
2. CN(C)C/C=C/C(=O)Nc1cccc(C(=O)Nc2ccc(Nc3nccc(-c4c(-c5ccccc5)nn5ccccc45)n3)cc2)c1

Result:
1: 100; 2: 97

---

target: TAOK2 (human); assay: KINOMEscan competition binding; conditions: compound 1.0 µM
Exercise: state measured kinase still bound, per cent of control for each of the molecules provided.
Numbers only, in %.

Known results for molecules:
compound_smiles=CN(C)C/C=C/C(=O)Nc1cccc(C(=O)Nc2ccc(Nc3nccc(-c4c(-c5ccccc5)nn5ccccc45)n3)cc2)c1 measured_on="TAOK2 (human)" result=31
compound_smiles=CN(C)C/C=C/C(=O)Nc1cccc(C(=O)Nc2ccc(Nc3nccc(-c4cccnc4)n3)cc2)c1 measured_on="TAOK2 (human)" result=54
compound_smiles=Cc1cc(NC(=O)c2cccc(NC(=O)/C=C/CN(C)C)c2)ccc1Nc1nccc(-c2cccnc2)n1 measured_on="TAOK2 (human)" result=73

Problem: // returns reported kinase still bound, per cent of control for input CN(C)C/C=C/C(=O)Nc1cccc(C(=O)Nc2ccc(Nc3nccc(/C(C#N)=C4\Nc5ccccc5S4)n3)cc2)c1
Result: 100

---

Exercise: state measured kinase still bound, per cent of control for each of the compounds provided.
target: CDK11B (human) (UniProt P21127); assay: KINOMEscan competition binding; settings: compound 1.0 µM
Sequence (P21127 whole entry, looked up): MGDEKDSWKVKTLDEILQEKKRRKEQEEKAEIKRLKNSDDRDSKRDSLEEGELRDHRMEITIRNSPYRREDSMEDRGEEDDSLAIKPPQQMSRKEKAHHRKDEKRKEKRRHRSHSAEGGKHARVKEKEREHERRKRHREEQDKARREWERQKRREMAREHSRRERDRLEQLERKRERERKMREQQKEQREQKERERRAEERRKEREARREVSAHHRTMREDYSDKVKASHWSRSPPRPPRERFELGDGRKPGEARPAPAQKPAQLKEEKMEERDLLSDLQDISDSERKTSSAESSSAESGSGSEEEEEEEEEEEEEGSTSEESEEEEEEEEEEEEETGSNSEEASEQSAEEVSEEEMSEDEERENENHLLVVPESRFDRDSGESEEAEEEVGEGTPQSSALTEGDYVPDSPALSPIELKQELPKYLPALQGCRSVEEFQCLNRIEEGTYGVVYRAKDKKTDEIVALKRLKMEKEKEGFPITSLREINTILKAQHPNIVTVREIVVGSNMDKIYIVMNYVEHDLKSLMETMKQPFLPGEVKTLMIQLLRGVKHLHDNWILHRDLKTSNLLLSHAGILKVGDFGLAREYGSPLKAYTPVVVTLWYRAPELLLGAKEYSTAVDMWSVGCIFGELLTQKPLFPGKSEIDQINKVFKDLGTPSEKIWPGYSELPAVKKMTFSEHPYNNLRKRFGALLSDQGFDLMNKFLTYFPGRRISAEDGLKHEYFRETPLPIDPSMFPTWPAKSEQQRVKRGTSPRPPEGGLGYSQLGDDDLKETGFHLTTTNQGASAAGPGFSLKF
Numbers only, in %.

compound_smiles=CN(C)C/C=C/C(=O)Nc1cccc(C(=O)Nc2ccc(Nc3nccc(/C(C#N)=C4\Nc5ccccc5S4)n3)cc2)c1 result=70
compound_smiles=Cc1cc(NC(=O)c2cccc(NC(=O)/C=C/CN(C)C)c2)ccc1Nc1nccc(-c2cccnc2)n1 result=100
compound_smiles=CN(C)C/C=C/C(=O)Nc1cccc(C(=O)Nc2ccc(Nc3nccc(-c4cccnc4)n3)cc2)c1 result=71

Problem: // returns reported kinase still bound, per cent of control for input CN(C)C/C=C/C(=O)Nc1cccc(C(=O)Nc2ccc(Nc3nccc(-c4c(-c5ccccc5)nn5ccccc45)n3)cc2)c1
Result: 43

---

Exercise: state measured kinase still bound, per cent of control for each of the compounds provided.
target: ACVR1B (human) (UniProt P36896); experiment: KINOMEscan competition binding; conditions: compound 1.0 µM
Sequence (P36896 whole entry, looked up): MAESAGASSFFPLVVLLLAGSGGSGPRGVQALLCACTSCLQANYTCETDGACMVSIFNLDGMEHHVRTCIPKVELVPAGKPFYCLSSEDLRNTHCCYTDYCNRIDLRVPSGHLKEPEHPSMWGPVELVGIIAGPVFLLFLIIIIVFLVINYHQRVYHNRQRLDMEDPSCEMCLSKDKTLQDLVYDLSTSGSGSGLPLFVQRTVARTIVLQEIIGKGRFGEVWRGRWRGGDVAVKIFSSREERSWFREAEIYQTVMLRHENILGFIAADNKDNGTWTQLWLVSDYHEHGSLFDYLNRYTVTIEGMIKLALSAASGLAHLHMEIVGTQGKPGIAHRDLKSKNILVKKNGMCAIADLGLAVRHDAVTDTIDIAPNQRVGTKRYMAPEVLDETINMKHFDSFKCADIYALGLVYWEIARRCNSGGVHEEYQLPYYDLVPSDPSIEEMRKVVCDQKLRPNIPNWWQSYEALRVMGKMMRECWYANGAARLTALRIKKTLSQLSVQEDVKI
Numbers only, in %.

Known results for compounds:
compound_smiles=CN(C)C/C=C/C(=O)Nc1cccc(C(=O)Nc2ccc(Nc3nccc(-c4c(-c5ccccc5)nn5ccccc45)n3)cc2)c1 result=8.4
compound_smiles=Cc1cc(NC(=O)c2cccc(NC(=O)/C=C/CN(C)C)c2)ccc1Nc1nccc(-c2cccnc2)n1 result=88
compound_smiles=CN(C)C/C=C/C(=O)Nc1cccc(C(=O)Nc2ccc(Nc3nccc(-c4cccnc4)n3)cc2)c1 result=86

Problem: // returns reported kinase still bound, per cent of control for input CN(C)C/C=C/C(=O)Nc1cccc(C(=O)Nc2ccc(Nc3nccc(/C(C#N)=C4\Nc5ccccc5S4)n3)cc2)c1
Result: 96
